# Test system: HepG2/CDDP cells
# MEASUREMENT_DESCRIPTION: MTT cell viability assay
# Type: cell-based, human
# CONDITION: HepG2/CDDP cells, 24 h, MTT
RECORDED_METRIC: IC50
Express your answer as a number followed by its unit.

For record [NH2][Pt]([NH2])([Cl])[Cl] [CDDP, cisplatin] the listed IC50 is 95.4 µM

====

# Tested on: HepG2 cells
# MEASUREMENT_DESCRIPTION: MTT cell viability assay
# Format: cell-based, human
# CONDITION: 24 h, MTT
RECORDED_METRIC: pIC50
Please keep in mind that pIC50 is minus log10 of the molar concentration; only the number is needed.

For this compound ( [NH2][Pt]([NH2])([Cl])[Cl] [CDDP, cisplatin] ), measured pIC50 is 4.78

Where do the numbers come from? From paper PMC5642580.
